# Organism: Oryctolagus cuniculus
# measurement_description: Compound was tested for the contraction of New Zealand white rabbit saphenous vein
# Type: functional
This section presents molecules with their documented pEC50 values.
Scale note: pEC50 = -log10(concentration in M).

Sample answers from the record:
1. CN(C)CCc1c[nH]c2ccc(Cc3nc(N)ns3)cc12 | 8.00
2. NCCc1c[nH]c2ccc(O)cc12 | 6.80
3. CN(C)CCc1c[nH]c2ccc(Cc3nc(N)no3)cc12 | 6.30

Continue with the molecule presented below.
Entry `CNS(=O)(=O)Cc1ccc2[nH]cc(CCN(C)C)c2c1` needs its pEC50 filled in; supply it.
6.20
